The values you see were collected from PubChem BioAssay AID1963960.

Documented viability, T/C across a set of compounds
Tested on: MDA-MB-468 spheroids with HUVEC/MSC, viability
MEASUREMENT NOTES: Anticancer human tumor MDA-MB-468 cell line growth inhibition [PI3K];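 note: spheroids exposed to agents for seven days before readout; 100% = DMSO vehicle control viability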
MEASUREMENT SETUP: second compound 0.1 µM; first compound 0.01 µM; hits give low values
Please state the figure in %; there is no need to write the unit.

Here's what some known entries look like.
CCN1CCN(Cc2ccc(Nc3ncc(F)c(-c4cc(F)c5nc(C)n(C(C)C)c5c4)n3)nc2)CC1 + Cc1nc(NC(=O)N2CCCC2C(N)=O)sc1-c1ccnc(C(C)(C)C(F)(F)F)c1; 85.9
CCN1CCN(Cc2ccc(Nc3ncc(F)c(-c4cc(F)c5nc(C)n(C(C)C)c5c4)n3)nc2)CC1 + CC(Nc1ncnc2nc[nH]c12)c1cc2cccc(Cl)c2c(=O)n1-c1ccccc1; 92.7
CCN1CCN(Cc2ccc(Nc3ncc(F)c(-c4cc(F)c5nc(C)n(C(C)C)c5c4)n3)nc2)CC1 + COc1c(OCCCN2CCOCC2)ccc2c3n(c(=NC(=O)c4cnc(N)nc4)nc12)CCN3; 72.4

Q: Would you kindly share the measured viability, T/C for CC(C)n1nc(-c2ccc3oc(N)nc3c2)c2c(N)ncnc21 + COc1c(OCCCN2CCOCC2)ccc2c3n(c(=NC(=O)c4cnc(N)nc4)nc12)CCN3 ?
Result: 49.9

Q: Would you kindly share the measured viability, T/C for Cn1ncnc1[C@H]1c2n[nH]c(=O)c3cc(F)cc(c23)N[C@@H]1c1ccc(F)cc1 + Cc1nc(NC(=O)N2CCCC2C(N)=O)sc1-c1ccnc(C(C)(C)C(F)(F)F)c1 ?
Result: 93

Q: Would you kindly share the measured viability, T/C for CC(=O)c1c(C)c2cnc(Nc3ccc(N4CCNCC4)cn3)nc2n(C2CCCC2)c1=O + CC(Nc1ncnc2nc[nH]c12)c1cc2cccc(Cl)c2c(=O)n1-c1ccccc1 ?
Result: 92.7

* * *

Documented viability, T/C across a set of compounds
System: MDA-MB-468 spheroids with HUVEC/MSC, viability
MEASUREMENT NOTES: Anticancer human tumor MDA-MB-468 cell line growth inhibition [PI3K];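 note: spheroids exposed to agents for seven days before readout; 100% = DMSO vehicle control viability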
MEASUREMENT SETUP: second compound 10 µM; first compound 0.0316 µM; hits give low values

CCCS(=O)(=O)Nc1ccc(F)c(C(=O)c2c[nH]c3ncc(-c4ccc(Cl)cc4)cc23)c1F + CC(Nc1ncnc2nc[nH]c12)c1cc2cccc(Cl)c2c(=O)n1-c1ccccc1; 40.3%
Cn1ncnc1[C@H]1c2n[nH]c(=O)c3cc(F)cc(c23)N[C@@H]1c1ccc(F)cc1 + CC(Nc1ncnc2nc[nH]c12)c1cc2cccc(Cl)c2c(=O)n1-c1ccccc1; 35.2%

Next compound, please.
Q: Would you kindly share the measured viability, T/C for C[C@@H](NC(=O)c1ncnc(N)c1Cl)c1ncc(C(=O)Nc2cc(C(F)(F)F)c(Cl)cn2)s1 + Cc1nc(NC(=O)N2CCCC2C(N)=O)sc1-c1ccnc(C(C)(C)C(F)(F)F)c1 ?
Result: 40.2%

* * *

Test system: MDA-MB-468 spheroids with HUVEC/MSC, viability
MEASUREMENT NOTES: Anticancer human tumor MDA-MB-468 cell line growth inhibition [PI3K];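 note: spheroids exposed to agents for seven days before readout; 100% = DMSO vehicle control viability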
MEASUREMENT SETUP: second compound 0.0316 µM; first compound 10 µM; hits give low values
OBSERVED PROPERTY: viability, T/C

Q: Give recorded viability, T/C with MDA-MB-468 spheroids with HUVEC/MSC, viability for the following molecule: CC(C)NCC(C(=O)N1CCN(c2ncnc3c2C(C)CC3O)CC1)c1ccc(Cl)cc1 (stereo not drawn) + CC(Nc1ncnc2nc[nH]c12)c1cc2cccc(Cl)c2c(=O)n1-c1ccccc1
Result: 25.7%

Q: Give recorded viability, T/C with MDA-MB-468 spheroids with HUVEC/MSC, viability for the following molecule: C#Cc1c(F)ccc2cc(O)cc(-c3ncc4c(N5CC6CCC(C5)N6)nc(OCC56CCCN5CC(F)C6)nc4c3F)c12 (stereo not drawn) + CC(Nc1ccc2c(c1)OCCn1cc(N3C(=O)OCC3C(F)F)nc1-2)C(N)=O
Result: 46.5%

Q: Give recorded viability, T/C with MDA-MB-468 spheroids with HUVEC/MSC, viability for the following molecule: Cn1nccc1Nc1nccc(-c2ccn(C(CO)c3ccc(Cl)c(F)c3)c(=O)c2)n1 (stereo not drawn) + CC(Nc1ccc2c(c1)OCCn1cc(N3C(=O)OCC3C(F)F)nc1-2)C(N)=O
Result: 77.8%
